system.under.test: Protein arginine N-methyltransferase 1 [11-371] (Homo sapiens)
Sequence (Q99873 11-371): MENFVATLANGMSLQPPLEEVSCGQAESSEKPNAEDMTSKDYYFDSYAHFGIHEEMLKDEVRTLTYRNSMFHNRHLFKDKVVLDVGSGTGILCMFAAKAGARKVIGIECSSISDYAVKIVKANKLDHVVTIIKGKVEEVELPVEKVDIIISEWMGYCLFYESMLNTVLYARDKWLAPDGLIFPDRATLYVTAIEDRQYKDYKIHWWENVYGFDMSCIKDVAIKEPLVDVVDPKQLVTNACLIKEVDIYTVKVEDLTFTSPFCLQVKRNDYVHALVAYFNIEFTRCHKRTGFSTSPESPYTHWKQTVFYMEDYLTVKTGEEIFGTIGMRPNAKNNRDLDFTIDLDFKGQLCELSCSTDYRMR
assay.endpoint: IC50

[[record]]
compound = "NC(=O)N/N=C/c1ccc(-c2ccc(Cl)cc2)o1 [P5i-6]"
recorded_result = "> 100 µM"


====

system.under.test: Protein arginine N-methyltransferase 8 (Homo sapiens, UniProt Q9NR22)
Sequence (Q9NR22 whole entry): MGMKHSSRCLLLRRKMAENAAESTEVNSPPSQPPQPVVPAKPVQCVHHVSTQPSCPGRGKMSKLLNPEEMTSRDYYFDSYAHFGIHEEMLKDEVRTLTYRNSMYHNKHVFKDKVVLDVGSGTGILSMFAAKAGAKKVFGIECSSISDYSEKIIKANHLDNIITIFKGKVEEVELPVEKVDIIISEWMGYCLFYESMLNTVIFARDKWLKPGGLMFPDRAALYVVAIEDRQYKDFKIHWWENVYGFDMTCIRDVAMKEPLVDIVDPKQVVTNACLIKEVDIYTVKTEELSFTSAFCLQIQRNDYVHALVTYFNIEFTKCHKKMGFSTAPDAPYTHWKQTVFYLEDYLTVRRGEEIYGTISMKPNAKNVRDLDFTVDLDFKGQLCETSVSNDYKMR
assay.endpoint: IC50

[[record]]
smiles_data = "NC(=O)N/N=C/c1ccc(-c2ccc(Cl)cc2)o1"
assay_endpoint = "IC50"
recorded_result = "> 100 µM"


====

system.under.test: Protein arginine N-methyltransferase 5 (Homo sapiens, UniProt O14744)
Sequence (O14744 whole entry): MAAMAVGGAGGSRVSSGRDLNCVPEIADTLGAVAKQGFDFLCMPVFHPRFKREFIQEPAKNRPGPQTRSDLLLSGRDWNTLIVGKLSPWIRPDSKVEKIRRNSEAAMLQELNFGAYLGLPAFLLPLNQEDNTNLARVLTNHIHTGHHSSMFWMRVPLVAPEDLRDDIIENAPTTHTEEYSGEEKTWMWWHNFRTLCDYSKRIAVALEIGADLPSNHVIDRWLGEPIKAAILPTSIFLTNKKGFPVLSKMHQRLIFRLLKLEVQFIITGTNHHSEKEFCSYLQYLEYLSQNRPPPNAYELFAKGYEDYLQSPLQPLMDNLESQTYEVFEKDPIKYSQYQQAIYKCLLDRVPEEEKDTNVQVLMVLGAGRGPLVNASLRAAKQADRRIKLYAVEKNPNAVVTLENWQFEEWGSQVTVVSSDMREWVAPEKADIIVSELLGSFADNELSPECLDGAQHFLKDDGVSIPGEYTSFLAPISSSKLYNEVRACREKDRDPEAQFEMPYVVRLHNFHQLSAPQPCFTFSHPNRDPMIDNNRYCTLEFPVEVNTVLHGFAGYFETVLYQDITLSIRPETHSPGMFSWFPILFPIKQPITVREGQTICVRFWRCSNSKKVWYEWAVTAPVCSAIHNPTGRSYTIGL
assay.endpoint: log10 IC50 (log10 of the value in µM)

[[record]]
molecule = "NC(=O)N/N=C/c1ccc(-c2ccccc2)o1"
recorded_result = 1.08

[[record]]
molecule = "O=C1NC(=S)NC(=O)C1=Cc1ccc(-c2ccc(Cl)cc2)o1"
recorded_result = 1.83

[[record]]
molecule = "NC(=O)N/N=C/c1ccc(-c2ccc([N+](=O)[O-])cc2)o1"
recorded_result = 1.26

[[record]]
molecule = "NC(=O)N/N=C/c1cccc(-c2ccc(Cl)cc2)n1"
recorded_result = 0.54

[[record]]
molecule = "NC(=O)N/N=C/c1ccc(-c2ccc(N)cc2)o1"
recorded_result = 1.60

[[record]]
molecule = "NC(=S)N/N=C/c1ccc(-c2ccc(Cl)cc2)o1 [P5i-7]"
recorded_result = -0.14


====

system.under.test: Histone-arginine methyltransferase CARM1 (Homo sapiens, UniProt Q86X55)
Sequence (Q86X55 whole entry): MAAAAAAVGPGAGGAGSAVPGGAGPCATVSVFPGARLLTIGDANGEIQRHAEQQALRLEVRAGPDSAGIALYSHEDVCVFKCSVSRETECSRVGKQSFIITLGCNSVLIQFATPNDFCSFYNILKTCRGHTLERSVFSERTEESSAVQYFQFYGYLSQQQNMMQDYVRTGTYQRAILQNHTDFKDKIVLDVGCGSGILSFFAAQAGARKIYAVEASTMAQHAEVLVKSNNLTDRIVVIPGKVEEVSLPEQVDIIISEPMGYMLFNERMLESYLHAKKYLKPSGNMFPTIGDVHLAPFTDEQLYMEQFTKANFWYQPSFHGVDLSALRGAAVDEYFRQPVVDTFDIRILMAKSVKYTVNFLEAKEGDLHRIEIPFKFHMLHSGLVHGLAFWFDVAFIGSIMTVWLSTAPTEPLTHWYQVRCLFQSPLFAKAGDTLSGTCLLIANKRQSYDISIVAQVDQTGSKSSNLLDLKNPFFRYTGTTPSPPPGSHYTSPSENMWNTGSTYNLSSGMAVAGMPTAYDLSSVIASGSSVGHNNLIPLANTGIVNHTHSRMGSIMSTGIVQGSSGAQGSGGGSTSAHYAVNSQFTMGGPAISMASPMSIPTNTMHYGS
pIC50: −log10 of the molar value.
assay.endpoint: pIC50

[[record]]
smiles_data = "NC(=O)N/N=C/c1ccc(-c2ccc(Cl)cc2)o1"
assay_endpoint = "pIC50"
recorded_result = "< 4.00"


Attribution: BindingDB's records for doi:10.1111/cbdd.12881
